- Target Desc: PfGrp94 (Plasmodium falciparum glucose-regulated protein 94 kDa, endoplasmin) (Plasmodium falciparum, UniProt Q8I0V4)
- Sequence (Q8I0V4 22-821): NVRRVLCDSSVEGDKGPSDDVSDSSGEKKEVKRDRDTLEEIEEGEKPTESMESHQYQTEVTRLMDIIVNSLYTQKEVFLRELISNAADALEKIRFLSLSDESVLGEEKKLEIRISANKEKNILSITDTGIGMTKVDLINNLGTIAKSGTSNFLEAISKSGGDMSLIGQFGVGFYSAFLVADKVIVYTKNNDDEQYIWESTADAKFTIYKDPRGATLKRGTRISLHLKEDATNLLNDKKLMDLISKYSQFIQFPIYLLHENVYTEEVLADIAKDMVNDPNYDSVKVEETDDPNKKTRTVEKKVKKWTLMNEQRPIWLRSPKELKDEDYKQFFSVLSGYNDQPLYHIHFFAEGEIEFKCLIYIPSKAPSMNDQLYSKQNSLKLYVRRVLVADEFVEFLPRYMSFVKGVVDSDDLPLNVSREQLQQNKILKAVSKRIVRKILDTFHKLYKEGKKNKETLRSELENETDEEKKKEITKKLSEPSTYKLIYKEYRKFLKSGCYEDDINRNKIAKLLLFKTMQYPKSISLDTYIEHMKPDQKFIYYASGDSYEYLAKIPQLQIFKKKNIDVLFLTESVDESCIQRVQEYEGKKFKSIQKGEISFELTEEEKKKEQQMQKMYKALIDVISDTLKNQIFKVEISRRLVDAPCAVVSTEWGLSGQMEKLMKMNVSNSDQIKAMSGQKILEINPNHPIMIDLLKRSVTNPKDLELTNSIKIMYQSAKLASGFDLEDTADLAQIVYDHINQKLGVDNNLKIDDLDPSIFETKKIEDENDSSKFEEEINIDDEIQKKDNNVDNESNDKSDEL
- Test Description: malachite green ATPase inhibition
Attribute Measured: EC50 (µM)
API: value field is a number in µM; no unit string.

Query: Fill in EC50 for record CCNC(=O)[C@H]1O[C@@H](n2cnc3c(N)ncnc32)[C@H](O)[C@@H]1O
Reply: 3.53
